tested on: HeLa; experiment: Inhibition of HSV-1 DNA synthesis in virus-infected HeLa cells; assay type: functional, cell-based; conditions: Homo sapiens
pIC50: −log10 of the molar value.
ATTRIBUTE MEASURED: pIC50

1. Nc1nc(Nc2cc(Cl)cc(Cl)c2)nc2c1ncn2[C@H]1C[C@H](O)[C@@H](CO)O1: 4.31
2. O=c1[nH]c(Nc2cc(Cl)cc(Cl)c2)nc2c1ncn2COC(CO)CO: 4.04
3. Nc1nc(Nc2cc(Cl)cc(Cl)c2)nc2c1ncn2COCCO: 4.89

* * *

molecules and their reported inhibition
Biological target: DNA helicase/primase complex protein (Herpes simplex virus (type 1 / strain 17)) (UniProt P10236)
Sequence (whole entry): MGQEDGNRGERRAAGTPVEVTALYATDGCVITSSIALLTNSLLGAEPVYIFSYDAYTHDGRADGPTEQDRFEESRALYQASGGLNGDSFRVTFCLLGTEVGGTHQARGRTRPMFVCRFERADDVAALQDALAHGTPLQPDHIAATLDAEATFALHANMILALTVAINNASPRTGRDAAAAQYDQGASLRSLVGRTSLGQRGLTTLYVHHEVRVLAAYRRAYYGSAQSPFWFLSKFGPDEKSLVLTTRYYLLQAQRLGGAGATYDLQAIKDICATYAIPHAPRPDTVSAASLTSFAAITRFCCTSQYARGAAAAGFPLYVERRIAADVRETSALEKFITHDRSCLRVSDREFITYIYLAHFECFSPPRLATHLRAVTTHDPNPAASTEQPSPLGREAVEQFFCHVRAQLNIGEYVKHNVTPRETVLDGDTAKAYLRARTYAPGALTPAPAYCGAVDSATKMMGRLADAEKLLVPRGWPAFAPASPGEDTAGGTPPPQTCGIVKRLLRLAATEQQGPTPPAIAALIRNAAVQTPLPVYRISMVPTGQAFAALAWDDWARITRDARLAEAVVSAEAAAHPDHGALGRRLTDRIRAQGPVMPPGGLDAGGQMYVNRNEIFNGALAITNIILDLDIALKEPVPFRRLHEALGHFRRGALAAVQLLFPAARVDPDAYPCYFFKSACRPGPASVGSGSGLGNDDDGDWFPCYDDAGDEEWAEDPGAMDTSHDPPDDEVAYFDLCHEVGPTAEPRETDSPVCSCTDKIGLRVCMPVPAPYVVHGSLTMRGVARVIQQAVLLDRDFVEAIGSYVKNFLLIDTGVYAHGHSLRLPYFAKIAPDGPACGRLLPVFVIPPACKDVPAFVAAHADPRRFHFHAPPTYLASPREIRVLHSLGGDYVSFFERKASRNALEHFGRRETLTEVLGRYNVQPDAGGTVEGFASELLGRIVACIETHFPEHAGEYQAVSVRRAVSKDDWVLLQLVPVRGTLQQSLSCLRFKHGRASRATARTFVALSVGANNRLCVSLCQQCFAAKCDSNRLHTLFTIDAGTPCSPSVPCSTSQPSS
Test: Inhibition against the primase activity of HSV-1 helicase-primase at a concentration 200 micro/mL
Conditions: Human alphaherpesvirus 1
ATTRIBUTE MEASURED: inhibition (%)

1) Nc1nc(O)cc(Nc2ccc(Cl)c(Cl)c2)n1: 44
2) Nc1[nH]c(Nc2cc(Cl)cc(Cl)c2)nc2ncnc1-2: 93
3) Nc1nc(O)cc(Nc2cc(Cl)cc(Cl)c2)n1: 34
4) Nc1[nH]c(Nc2ccc(Cl)c(Cl)c2)nc2ncnc1-2: 94
5) Nc1nc(Cl)cc(Nc2cc(Cl)cc(Cl)c2)n1: 92
6) Oc1cc(Nc2cc(Cl)cc(Cl)c2)nc(O)n1: 46
7) Oc1cc(Nc2ccc(Cl)c(Cl)c2)nc(O)n1: 30
8) Nc1nc(Cl)cc(Nc2ccc(Cl)c(Cl)c2)n1: 98

These entries and their values trace back to ChEMBL document CHEMBL1128737.
